- SYSTEM TESTED: Sodium channel protein type 10 subunit alpha (Homo sapiens)
- Sequence (Q9Y5Y9 whole entry): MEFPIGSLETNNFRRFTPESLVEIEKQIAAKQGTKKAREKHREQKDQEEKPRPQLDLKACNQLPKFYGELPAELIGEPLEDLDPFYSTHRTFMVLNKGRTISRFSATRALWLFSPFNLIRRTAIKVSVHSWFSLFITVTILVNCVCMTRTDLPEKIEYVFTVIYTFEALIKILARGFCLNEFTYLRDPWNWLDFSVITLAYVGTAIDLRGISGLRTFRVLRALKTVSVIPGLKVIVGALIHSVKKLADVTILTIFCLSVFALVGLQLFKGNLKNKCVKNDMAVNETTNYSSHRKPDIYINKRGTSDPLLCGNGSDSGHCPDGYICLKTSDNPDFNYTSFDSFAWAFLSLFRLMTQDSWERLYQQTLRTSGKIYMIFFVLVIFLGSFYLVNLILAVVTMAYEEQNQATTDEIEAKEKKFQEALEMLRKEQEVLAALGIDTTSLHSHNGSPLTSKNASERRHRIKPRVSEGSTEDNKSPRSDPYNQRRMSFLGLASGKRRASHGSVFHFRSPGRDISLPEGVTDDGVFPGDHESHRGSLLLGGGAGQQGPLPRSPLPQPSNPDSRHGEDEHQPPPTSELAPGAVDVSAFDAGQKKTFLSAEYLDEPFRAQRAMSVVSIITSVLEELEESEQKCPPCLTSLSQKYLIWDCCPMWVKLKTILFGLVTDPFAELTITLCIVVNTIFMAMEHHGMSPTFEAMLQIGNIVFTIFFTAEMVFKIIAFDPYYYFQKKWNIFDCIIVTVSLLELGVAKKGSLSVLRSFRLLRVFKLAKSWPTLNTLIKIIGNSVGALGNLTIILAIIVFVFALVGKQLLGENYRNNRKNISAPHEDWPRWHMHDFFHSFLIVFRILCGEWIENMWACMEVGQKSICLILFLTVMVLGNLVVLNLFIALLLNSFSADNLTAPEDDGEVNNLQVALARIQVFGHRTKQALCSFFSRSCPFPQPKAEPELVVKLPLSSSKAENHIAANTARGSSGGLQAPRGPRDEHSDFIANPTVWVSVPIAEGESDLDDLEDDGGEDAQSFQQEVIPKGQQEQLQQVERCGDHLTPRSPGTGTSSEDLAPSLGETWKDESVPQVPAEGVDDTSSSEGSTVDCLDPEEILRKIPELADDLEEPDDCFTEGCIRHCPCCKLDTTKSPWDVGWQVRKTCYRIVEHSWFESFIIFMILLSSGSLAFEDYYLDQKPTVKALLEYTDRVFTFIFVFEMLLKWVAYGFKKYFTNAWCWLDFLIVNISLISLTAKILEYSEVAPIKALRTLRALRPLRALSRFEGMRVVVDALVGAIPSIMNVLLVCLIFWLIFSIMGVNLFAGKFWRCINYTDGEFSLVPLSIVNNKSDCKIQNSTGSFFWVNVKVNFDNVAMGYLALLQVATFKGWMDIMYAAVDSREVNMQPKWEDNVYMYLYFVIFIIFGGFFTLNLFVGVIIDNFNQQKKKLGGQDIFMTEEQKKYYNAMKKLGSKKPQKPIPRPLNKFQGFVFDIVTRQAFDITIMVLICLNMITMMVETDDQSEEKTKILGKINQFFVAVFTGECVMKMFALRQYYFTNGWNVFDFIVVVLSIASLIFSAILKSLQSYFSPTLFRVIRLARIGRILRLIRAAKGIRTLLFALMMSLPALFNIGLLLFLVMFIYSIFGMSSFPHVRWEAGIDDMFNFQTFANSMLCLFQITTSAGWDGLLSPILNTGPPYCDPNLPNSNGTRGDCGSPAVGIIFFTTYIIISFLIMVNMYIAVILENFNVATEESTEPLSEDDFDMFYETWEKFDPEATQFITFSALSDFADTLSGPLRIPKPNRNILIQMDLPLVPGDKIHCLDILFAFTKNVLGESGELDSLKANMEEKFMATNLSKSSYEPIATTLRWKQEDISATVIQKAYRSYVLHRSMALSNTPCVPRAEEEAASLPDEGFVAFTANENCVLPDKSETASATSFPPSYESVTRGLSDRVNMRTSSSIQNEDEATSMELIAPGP
- PROTOCOL NOTES: Inhibition of human Nav1.8 with resting membrane potential at half inactivated state by PatchXpress high-throughput electrophysiology method
pIC50: −log10 of the molar value.
OBSERVED PROPERTY: pIC50

| SMILES ENTRY | CMP | VALUE OBSERVED |
| --- | --- | --- |
| Cc1cc(OC(F)(F)F)ccc1Oc1ncc(C(F)(F)F)cc1C(=O)Nc1cccc(S(C)(=O)=O)c1 | = | 7.46 |
| COCCCNC(=O)c1cc(C(F)(F)F)cnc1Oc1ccc(F)cc1OC | < | 5.00 |
| COc1cc(F)ccc1Oc1ncc(C(F)(F)F)cc1C(=O)Nc1ccnnc1 | = | 6.60 |
| CC(C)Oc1ncc(C(F)(F)F)cc1C(=O)Nc1cccc(S(C)(=O)=O)c1 | < | 5.00 |
| Cc1cc(F)ccc1Oc1ncc(C(F)(F)F)cc1C(=O)Nc1cccc([S@](C)(=N)=O)c1 | = | 7.46 |
